# Test system: U2OS
# test protocol: Incucyte cell viability with U2OS; note: filed as whole numbers so only -1 and 0 and 1 occur
# Type: toxicity, cell-based
# condition details: human, 12 h, 10 µM, compound concentration 10 uM, replicate number 2, timepoint 12 hours
metric: Growth Rate

[[record]]
cpd_smiles = "COc1ccc2cc(OCC3(C(=O)O)CN(C(=O)c4ccc(F)cc4)C3)ccc2c1"
study_system = "U2OS"
metric = "Growth Rate"
readout_value = 0

[[record]]
cpd_smiles = "O=C(NCc1ncc(C(F)(F)F)cc1Cl)c1ccc2c(c1)C1(CCS(=O)(=O)CC1)[C@H](C1CC1)N2S(=O)(=O)c1ccc(F)cc1"
study_system = "U2OS"
metric = "Growth Rate"
readout_value = 1

[[record]]
cpd_smiles = "C[C@H](Cc1cc2c(c(C(N)=O)c1)N(CCCO)CC2)NCCOc1ccccc1OCC(F)(F)F"
study_system = "U2OS"
metric = "Growth Rate"
readout_value = 0

[[record]]
cpd_smiles = "CC(=O)C1=C(C)N(c2cccc(C(F)(F)F)c2)C(=O)N[C@H]1c1ccc(C#N)nc1"
study_system = "U2OS"
metric = "Growth Rate"
readout_value = 0

[[record]]
cpd_smiles = "CN1CCN(CCOc2cc(OC3CCOCC3)c3c(Nc4c(Cl)ccc5c4OCO5)ncnc3c2)CC1"
study_system = "U2OS"
metric = "Growth Rate"
readout_value = 1

[[record]]
cpd_smiles = "Cc1nc(-c2ccc(-c3ccc(C(=O)N4CCc5cc6c(cc54)C4(CCN(C)CC4)CO6)cc3)c(C)c2)no1"
study_system = "U2OS"
metric = "Growth Rate"
readout_value = 1

[[record]]
cpd_smiles = "CN(C)C(=O)/C(C#N)=C/c1ccc(-c2nc3cnc4[nH]ccc4c3n2C2CCCCC2)o1"
study_system = "U2OS"
metric = "Growth Rate"
readout_value = 1

[[record]]
cpd_smiles = "Cc1nc(C2CCN(C(=O)c3ccc(OC(F)(F)F)cc3N)CC2)c2ncc(N3CCN(C)CC3)cc2n1"
study_system = "U2OS"
metric = "Growth Rate"
readout_value = 1


---

# Tested on: HEK-293T
# test protocol: Multiplex assay against HEK293T
# Assay type: toxicity, cell-based
# condition details: human, 12 h, 1 µM, compound concentration 1 uM, replicate 1
metric: Population Membrane Permeable-Phenotype (%)

[[record]]
cpd_smiles = "COc1ncc(-c2ccc3nccc(-c4ccnnc4)c3c2)cc1NS(=O)(=O)c1ccc(F)cc1F"
study_system = "HEK-293T"
readout_value = 2

[[record]]
cpd_smiles = "CN(C)C(=O)/C(C#N)=C/c1ccc(-c2nc3cnc4[nH]ccc4c3n2C2CCCCC2)o1"
study_system = "HEK-293T"
readout_value = 2

[[record]]
cpd_smiles = "C=CC(=O)Nc1cccc(C(=O)Nc2ccc(Nc3cc(-c4[nH]c(SC)nc4C)ccn3)cc2)c1"
study_system = "HEK-293T"
readout_value = 4

[[record]]
cpd_smiles = "Cc1csc2c(N[C@@H](C)CN3CCN(S(=O)(=O)c4ccc(Cl)c(Cl)c4)CC3)ncnc12"
study_system = "HEK-293T"
readout_value = 6


---

# Tested on: HEK-293T
# test protocol: Multiplex assay against HEK293T;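 for Population Tubulin-Different-Phenotype (%): share of the cells with healthy nuclei that show this phenotype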
# Format: toxicity, cell-based
# condition details: human, 12 h, 10 µM, compound concentration 10 uM, replicate 1
Binary label based on Population Tubulin-Different-Phenotype (%) with cut-off 80%: below gives label 1, not below gives label 0.

[[record]]
compound = "C[C@@H](NCCCc1cccc(C(F)(F)F)c1)c1cccc2ccccc12.Cl [CINACALCET HYDROCHLORIDE]"
class_assignment = "label 0"

[[record]]
compound = "CC(C)(O)CNc1ncc(-c2ccnc(Nc3ccnc(Cl)c3)n2)c(CC2CC2)n1"
class_assignment = "label 0"

[[record]]
compound = "CN(C)CC#Cc1ccc(OCCCc2sc(N3CCc4cccc(C(=O)Nc5nc6ccccc6s5)c4C3)nc2C(=O)O)c(F)c1"
class_assignment = "label 1"

[[record]]
compound = "COc1ncc(-c2ccc3nccc(-c4ccnnc4)c3c2)cc1NS(=O)(=O)c1ccc(F)cc1F"
class_assignment = "label 1"

[[record]]
compound = "Cc1cc(C)cc(-c2cnc3cc(Cl)c(-c4cccc(O)c4)cc3c2OCCCN)c1"
class_assignment = "label 1"

[[record]]
compound = "COc1cccc([C@@H](C)NCCCc2ccccc2Cl)c1.Cl [TECALCET HYDROCHLORIDE]"
class_assignment = "label 0"

[[record]]
compound = "CNc1nc(NCc2ccc(NS(C)(=O)=O)cc2Cl)cc(-c2ccccn2)n1"
class_assignment = "label 0"

[[record]]
compound = "C=CC(=O)Nc1cc2c(Nc3ccc(F)c(Cl)c3)ncnc2cc1OCCCN1CCOCC1.Cl.Cl [CANERTINIB DIHYDROCHLORIDE]"
class_assignment = "label 1"

[[record]]
compound = "CN1CCC[C@@H]1CCO[C@](C)(c1ccccc1)c1ccc(Cl)cc1.O=C(O)/C=C/C(=O)O [CLEMASTINE FUMARATE]"
class_assignment = "label 0"

[[record]]
compound = "Cc1nc(-c2cn3c(n2)-c2ccc(-c4cnn(C(C)(C)C(N)=O)c4)cc2OCC3)n(C(C)C)n1"
class_assignment = "label 1"

[[record]]
compound = "Cc1sc2c(c1C)C(c1ccc(Cl)cc1)=N[C@@H](CC(=O)OC(C)(C)C)c1nnc(C)n1-2"
class_assignment = "label 1"

[[record]]
compound = "Cc1c(-c2ccc(O)cc2)n(Cc2ccc(OCCN3CCCCCC3)cc2)c2ccc(O)cc12"
class_assignment = "label 1"

[[record]]
compound = "CN1C(=O)c2sccc2N(C)c2nc(Nc3ccc(S(N)(=O)=O)cc3)ncc21"
class_assignment = "label 1"

[[record]]
compound = "CC(C)NCC(O)COc1ccc(CCOCC2CC2)cc1.Cl (stereo unspecified) [BETAXOLOL HYDROCHLORIDE]"
class_assignment = "label 0"

[[record]]
compound = "Cc1[nH]c(/C=C2\\C(=O)Nc3ccc(S(=O)(=O)N(C)c4cccc(Cl)c4)cc32)c(C)c1C(=O)N1CCN(C)CC1"
class_assignment = "label 0"

